Provide the recorded Specific activity for the entries that follow.
# TARGET_OF_ASSAY: N-acylamino acid racemase (NAAAR) (Deinococcus radiodurans, UniProt Q9RYA6, A252S/A94S/G148D/K158R/P315S)
# Sequence (Q9RYA6 whole entry A94S/G148D/K158R/A252S/P315S): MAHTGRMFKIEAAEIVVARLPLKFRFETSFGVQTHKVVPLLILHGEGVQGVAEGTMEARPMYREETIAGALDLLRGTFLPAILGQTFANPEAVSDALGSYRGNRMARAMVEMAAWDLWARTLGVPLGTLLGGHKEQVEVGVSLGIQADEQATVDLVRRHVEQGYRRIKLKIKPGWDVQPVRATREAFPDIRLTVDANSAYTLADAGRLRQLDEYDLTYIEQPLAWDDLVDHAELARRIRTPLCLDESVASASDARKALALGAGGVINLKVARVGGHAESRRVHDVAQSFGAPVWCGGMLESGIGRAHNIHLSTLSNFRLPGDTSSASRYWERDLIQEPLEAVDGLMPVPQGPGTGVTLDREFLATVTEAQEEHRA
# TEST_DESCRIPTION: Substrate selectivity / enzymetic activity of NAAAR by Chiral-HPLC
# Type: biochemical, Deinococcus radiodurans NCHU1003
# CONDITION_DETAILS: 10 mM substrate, 0.5 mM CoCl2, 50 mM Tris-HCl pH 8.0, 50° C., 30 min
API: value field is a number in U/mg; no unit string.

*Q* What does the data say about its Specific activity? Entry: CSCC[C@H](NC(C)=O)C(=O)O [N-acetyl-L-Met]
*A* 8.04

*Q* Would you kindly repeat that for CC(=O)N[C@@H](CCc1ccccc1)C(=O)O [N-acetyl-L-HPA] ?
*A* 11.97

*Q* Would you kindly repeat that for CC(=O)N[C@@H](CC(C)C)C(=O)O [N-acetyl-L-Leu] ?
*A* 0.45

*Q* Would you kindly repeat that for CC(=O)N[C@@H](CCC(N)=O)C(=O)O [N-acetyl-L-Gln] ?
*A* 0.93

*Q* Would you kindly repeat that for CC(=O)N[C@@H](Cc1c[nH]c2ccccc12)C(=O)O [N-acetyl-L-Trp] ?
*A* 0.87

*Q* Would you kindly repeat that for CC(=O)N[C@H](CCc1ccccc1)C(=O)O [N-acetyl-D-HPA] ?
*A* 9.17

*Q* Would you kindly repeat that for O=C(CCl)N[C@@H](Cc1ccccc1)C(=O)O [N-chloroacetyl-L-Phe] ?
*A* 1.16

*Q* Would you kindly repeat that for [2H]NC(=O)N[C@@H](CCc1ccccc1)C(=O)O [N-carbamoyl-D-HPA] ?
*A* 1.31

*Q* Would you kindly repeat that for NC(=O)N[C@@H](CCc1ccccc1)C(=O)O [N-carbamoyl-L-HPA] ?
*A* 1.91

*Q* Would you kindly repeat that for CSCC[C@@H](NC(C)=O)C(=O)O [N-acetyl-D-Met] ?
*A* 6.40

*Q* Would you kindly repeat that for CC(=O)N[C@@H](Cc1ccccc1)C(=O)O [N-acetyl-L-Phe] ?
*A* 1.55

*Q* Would you kindly repeat that for CC(=O)N[C@H](Cc1ccccc1)C(=O)O [N-acetyl-D-Phe] ?
*A* 1.98

###

# TARGET_OF_ASSAY: N-acylamino acid racemase (NAAAR) (Deinococcus radiodurans, UniProt Q9RYA6, A252S/A94S/G148D/K158R/P315S)
# Assay type: biochemical, Deinococcus radiodurans NCHU1003
# CONDITION_DETAILS: compound at 2 mM; percentage of activity with CoCl2; substrate 10 mM N-carbamoyl-D-HPA, 50° C., 30 min
MEASURED_QUANTITY: Relative activity (%)
API: value field is a number in %; no unit string.

*Q* What does the data say about its Relative activity? Entry: [Ca+2].[Cl-].[Cl-]
*A* 0

*Q* Would you kindly repeat that for [Cl-].[Cl-].[Zn+2] ?
*A* 19.7

*Q* Would you kindly repeat that for [Cl][Cu][Cl] ?
*A* 0

*Q* Would you kindly repeat that for [Cl-].[Cl-].[Mg+2] ?
*A* 20.5

*Q* Would you kindly repeat that for [Cl][Ni][Cl] ?
*A* 40.6

*Q* Would you kindly repeat that for [Cl][Mn][Cl] ?
*A* 79.1
